z-score for assorted molecules
testedOn: Luciferin 4-monooxygenase (Photinus pyralis)
procedureText: firefly luciferase enzyme inhibitors, primary screen, biochemical, luminescence, purified enzyme, 2006 set (AID 1141);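 note: cell-free assay with purified firefly luciferase at 100 ng per well in PBS; test concentration not given here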
assayContext: SteadyGlo luminescence, 30 min, higher = more signal, called active from +8 up or from −8 down
Give the figure only, with no unit attached.

Recorded results for 3 molecules are shown here.
1) CC(C)=NOC(C)CN1CCCCc2nc(C)c(C)cc21 (centres undefined)    -0.327
2) CC(=O)OC[C@H]1O[C@H](CCON=C(C)CCN2CCCc3nc(C)c(C)cc32)C=C[C@@H]1OC(C)=O    0.591
3) C#CCCCON=C1C[C@@H](O)[C@@H](O)[C@@H]2[C@@H]3C(=O)N(C[C@@H]4CCCO4)C(=O)[C@@H]3CC[C@H]12    0.451

Exam item: Form field: reported z-score of `CC(=O)OC[C@H]1O[C@H](CC=NO[C@@H](C)c2cn([C@H](CO)Cc3ccccc3)nn2)C=C[C@@H]1OC(C)=O`
Marked response: 1.36

---

testedOn: Calmodulin-1 (Homo sapiens)
procedureText: CALM1 binders on microarrays, EGTA buffer, profiling panel, biochemical, small-molecule microarray, Cy5-labelled CALM1 (AID 1111);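 note: labelled calmodulin applied in Tris saline Tween buffer holding calcium plus EGTA and DTT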
assayContext: Cy5-CALM1 binding fluorescence, higher = more signal
Reported composite z-score values for a set of compounds
// return just the number, without any unit appended

Would you please look over these solved cases?
1. C[C@@H]1CC[C@@H](C(=O)O)N[C@H]1c1cccc(N2CCOCC2)c1    -0.101
2. O=C1C2=CC[C@H]3C(=O)N(C[C@@H]4CCCO4)C(=O)[C@H]3[C@H]2[C@H](O)[C@@H]2O[C@H]12    -0.248
3. CCOC(=O)[C@H](CC(C)C)NC(=O)CCC1CC(OC(=O)NCc2ccc3c(c2)OCO3)CC2(CCCC(COC(=O)NCCc3ccccc3OC)O2)O1 (stereo not given in full)    0.618
4. CC(CCN1CCCCc2nc(C)c(C)cc21)=NO[C@@H](C)c1cc(-c2c(C)cc(C)cc2C)no1    -0.901

Exam item: Could you share what composite z-score was measured for `COC(=O)[C@@H]1CC[C@H](C)[C@@H](c2ccc(Br)cc2)N1` , tested on Calmodulin-1 (Homo sapiens)?
Marked response: -0.0261

---

procedureText: binders of probe aFGF2 on microarray, primary screen, stem cell growth factor project, biochemical, small-molecule microarray, fluorescence 635/667 (AID 1067);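 note: measures binding of biotinylated aFGF2 protein to printed compounds on slides; z-score merges feature fluorescence and signal-to-noise across triplicate slides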
assayContext: higher = more signal
The label depends only on composite z-score: Met if it is at least -0.1, Not met if it is smaller.

Example results:
1) CCCNC(=O)OC[C@H]1O[C@H](CCON=C2C[C@@H](O)[C@@H](O)[C@@H]3[C@@H]4C(=O)N(CC)C(=O)[C@@H]4CC[C@@H]23)C=C[C@@H]1Oc1ccc(OC)cc1    Met
2) CC(CCN1CCCCc2nc(C)c(C)cc21)=NO[C@H](C)c1cn([C@@H]2COC[C@H]2O)nn1    Not met
3) O=C1C=C[C@@H](O)[C@@H]2[C@@H]3C(=O)N(Cc4ccccc4)C(=O)[C@@H]3CC[C@@H]12    Not met
4) CC(C)(C)N1C(=O)[C@H]2[C@H]3[C@H](O)[C@H](O)CC(=NNC(=O)OCc4ccccc4)[C@H]3CC[C@H]2C1=O    Met
5) CO[C@H]1COC(=O)CCC[C@H](C)[C@@H](OC)COC(=O)CC=C[C@@H]1C    Not met

Exam item: Answer whether composite z-score of `C[C@H]1CC[C@H]2C(=O)N[C@H](Cc3ccccc3)C(=O)N2[C@@H]1c1ccccc1` is greater than or equal to -0.1.
Marked response: Met

Exam item: Ok, now C[C@H]1CC[C@H]2C(=O)OC(COc3ccc(C(C)(C)C)cc3)CN2[C@@H]1c1ccc(Br)cc1 (stereo partly drawn)
Marked response: Not met

---

testedOn: Pro-neuregulin-1, membrane-bound isoform (Homo sapiens)
procedureText: NRG1 binders on small-molecule microarrays, primary screen, psychiatric disease protein project, biochemical, small-molecule microarray, fluorescence 635/667 (AID 1075);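 note: score combines 667 nm spot fluorescence with signal to noise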
assayContext: NRG1 binding, 635 nm fluorescence, higher = more signal
observationType: composite z-score
Response field accepts a number only; no unit should be typed.

Here are 5 compounds together with their reported answers.
1) CC(CCN1CCCc2nc(C)c(C)cc21)=NOC[C@@H](O)COCc1ccco1    -0.0146
2) O=C1[C@H]2CCn3c(=O)n(Cc4cc5c(cc4Cl)OCO5)c(=O)n3[C@H]2[C@H](O)[C@@H]2O[C@H]12    -0.156
3) CCOC(=O)NN=C1C[C@@H](O)[C@@H](O)[C@@H]2[C@@H]3C(=O)N(CC)C(=O)[C@@H]3CC[C@H]12    -0.313
4) CC(CCN1CCCCc2nc(C)c(C)cc21)=NO[C@H](C)c1cn([C@@H]2COC[C@H]2O)nn1    0.172
5) O=C1C=C[C@@H](O)[C@@H]2[C@@H]3C(=O)N(c4cccc(Oc5ccccc5)c4)C(=O)[C@@H]3CC[C@@H]12    -0.04

Exam item: Requested field: composite z-score. Item: `Cc1cc(C)c(-c2cc([C@H](C)ON=C[C@@H](C)[C@H](OCc3ccccc3)C(C)C)on2)c(C)c1`
Marked response: -0.529

Exam item: `CO[C@@H]1COC(=O)[C@H](COCc2ccccc2)NC(=O)CC=C[C@@H](C)[C@H](OC)COC(=O)[C@@H](C)NC(=O)CC=C[C@H]1C` ?
Marked response: -0.637

Exam item: Follow-up entry: COC(=O)[C@H](C)NC(=O)CCC1CC(OC(=O)NCc2cccc3ccccc23)CC2(CCCC(COC(=O)NCCOc3ccccc3)O2)O1 (stereo partly drawn)
Marked response: 1.27

---

procedureText: FRG1 promoter luciferase signal modulators, primary screen, FRG1 inhibition for FSHD, cell-based, C2C12 myotubes, firefly/Renilla luciferase, luminescence (AID 1084)
assayContext: higher = more signal, called active from +8 up or from −8 down
observationType: z-score
API doc: respond with a numeric literal and nothing else, no unit.

Observe how each entry below is paired with its result.
1) C=CC[C@@H]1C=C[C@H](ON=C2C[C@@H](O)[C@@H](O)[C@@H]3[C@@H]4C(=O)N(CC)C(=O)[C@@H]4CC[C@@H]23)[C@@H](CO)O1    1.15
2) CC1(C)O[C@H]2OC([C@H](O)CON3C(=O)c4ccccc4C3=O)[C@H](O)[C@H]2O1 (some centres not stated)    0.516
3) COc1ccc(COC(=O)NN=C2C[C@@H](O)[C@@H](O)[C@@H]3[C@@H]4C(=O)N([C@@H](C)c5ccccc5)C(=O)[C@@H]4CC[C@@H]23)cc1    0.497
4) CCc1cc2c(nc1CC)CCN(CCC(C)=NO[C@@H]1O[C@H](COC(C)=O)[C@@H](OC(C)=O)[C@H](OC(C)=O)[C@H]1OC(C)=O)C2    1.05
5) CCN1C(=O)[C@H]2[C@@H]3C(=CC[C@H]2C1=O)C(=O)[C@H]1O[C@H]1[C@H]3O    -2.63

Exam item: What value of measured z-score is listed for CCOC(=O)[C@H](CC(C)C)NC(=O)CCC1CC(OC(=O)NCc2ccc3c(c2)OCO3)CC2(CCCC(COC(=O)NCCc3ccccc3OC)O2)O1 (some centres not stated) ?
Marked response: 1.01

Exam item: Then what about the compound CCOC(=O)[C@H](Cc1ccccc1)NC(=O)CCC1CC(OC(=O)NCCc2ccc(F)cc2)CC2(CCCC(COC(=O)NCCOc3ccccc3)O2)O1 (some centres not stated) ?
Marked response: -0.997

---

Test system: Lefty1
procedureText: Lefty1 binders on small-molecule microarrays, primary screen, biochemical, small-molecule microarray, 635/667 nm fluorescence (AID 1139)
assayContext: small-molecule microarray binding, fluorescence 635/667; higher = more signal
observationType: composite z-score
Just the number.

1. CC(=O)OC[C@H]1O[C@@H](ON=C(C)C)[C@H](OC(C)=O)[C@@H](OC(C)=O)[C@@H]1OC(C)=O    -1.03

Next, consider the following compound.
Exam item: Name the recorded composite z-score for `O=C1[C@H]2[C@H]3[C@H](O)[C@H](O)CC(=NOCc4ccccc4)[C@@H]3CC[C@H]2C(=O)N1c1cccc(Oc2ccccc2)c1` .
Marked response: 0.687

---

Tested on: Human papillomavirus type 1a E7 protein (residues 1-88)
procedureText: HPV1a E7 small-molecule binders, primary screen, biochemical, small-molecule microarray, residues 1-88, 635 nm (AID 1129)
assayContext: small-molecule microarray binding, fluorescence 635 nm; higher = more signal
observationType: composite z-score
Number only, please.

Exam item: Missing value: composite z-score, Human papillomavirus type 1a E7 protein (residues 1-88), entry `CC(=O)OC[C@H]1O[C@H](C#CCCc2ccccc2)C=C[C@@H]1OC(C)=O` . Fill in?
Marked response: -0.417

Exam item: Same question for `CC(C)=NO[C@H](C)c1cn([C@@H]2COC[C@H]2O)nn1` please.
Marked response: 0.661
